Each record here notes measured pKi.
# Subject Of Test: GABA-A receptor; alpha-3/beta-3/gamma-2 (Homo sapiens, UniProt P18507+P28472+P34903)
# Sequence (P18507 whole entry): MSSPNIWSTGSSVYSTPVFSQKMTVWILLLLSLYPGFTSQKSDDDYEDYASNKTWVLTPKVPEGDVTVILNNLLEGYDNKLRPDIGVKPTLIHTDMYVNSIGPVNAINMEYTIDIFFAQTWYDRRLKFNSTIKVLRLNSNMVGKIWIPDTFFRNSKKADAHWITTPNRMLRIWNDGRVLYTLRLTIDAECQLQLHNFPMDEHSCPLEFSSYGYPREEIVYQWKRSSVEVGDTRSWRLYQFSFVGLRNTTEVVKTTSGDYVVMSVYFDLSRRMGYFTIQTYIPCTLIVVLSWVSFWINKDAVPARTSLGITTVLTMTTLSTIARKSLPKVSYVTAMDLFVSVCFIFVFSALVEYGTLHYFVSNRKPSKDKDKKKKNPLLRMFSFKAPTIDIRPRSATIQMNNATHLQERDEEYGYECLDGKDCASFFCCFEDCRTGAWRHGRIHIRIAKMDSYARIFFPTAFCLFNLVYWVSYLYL
# Sequence (P28472 whole entry): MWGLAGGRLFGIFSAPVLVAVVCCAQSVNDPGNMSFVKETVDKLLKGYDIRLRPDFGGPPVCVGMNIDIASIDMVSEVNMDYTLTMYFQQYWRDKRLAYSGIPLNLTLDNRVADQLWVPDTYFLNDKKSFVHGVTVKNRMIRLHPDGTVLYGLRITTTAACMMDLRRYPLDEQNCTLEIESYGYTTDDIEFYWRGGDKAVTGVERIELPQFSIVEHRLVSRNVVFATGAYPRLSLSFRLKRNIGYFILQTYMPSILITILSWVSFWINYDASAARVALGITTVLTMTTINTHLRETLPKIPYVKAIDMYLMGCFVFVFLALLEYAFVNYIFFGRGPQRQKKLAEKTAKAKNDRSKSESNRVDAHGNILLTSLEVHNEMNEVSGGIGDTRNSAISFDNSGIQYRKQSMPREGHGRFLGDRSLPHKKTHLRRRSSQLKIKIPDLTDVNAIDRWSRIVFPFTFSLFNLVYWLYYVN
# Sequence (P34903 whole entry): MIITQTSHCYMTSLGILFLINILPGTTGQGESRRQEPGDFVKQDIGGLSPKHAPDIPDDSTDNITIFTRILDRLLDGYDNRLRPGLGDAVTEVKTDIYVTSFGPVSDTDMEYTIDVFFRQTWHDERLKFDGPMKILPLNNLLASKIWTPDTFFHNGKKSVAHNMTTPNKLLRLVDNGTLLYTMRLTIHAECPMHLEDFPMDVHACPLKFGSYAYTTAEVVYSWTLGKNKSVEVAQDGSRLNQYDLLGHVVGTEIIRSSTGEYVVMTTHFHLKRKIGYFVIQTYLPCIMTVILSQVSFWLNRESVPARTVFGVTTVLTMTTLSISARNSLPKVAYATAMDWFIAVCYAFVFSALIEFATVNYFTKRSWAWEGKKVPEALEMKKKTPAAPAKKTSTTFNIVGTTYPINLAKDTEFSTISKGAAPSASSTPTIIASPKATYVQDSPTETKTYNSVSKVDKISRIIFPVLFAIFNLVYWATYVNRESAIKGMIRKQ
# Experiment Summary: Inhibition of [3H]Ro-151788 binding to recombinant human gamma-aminobutyric-acid A receptor alpha-3-beta-3-gamma-2 subtype expressed in L (tk-) cells
pKi: −log10 of the molar value.
Parameter: pKi

[[record]]
smiles_repr = "OCCCOc1nn2c(-c3ccccc3)nnc2c2c1C1CCC2CC1"
parameter = "pKi"
comparison_symbol = "="
measurement = 6.77

[[record]]
smiles_repr = "CCCc1cccnc1COc1nn2c(-c3ccccc3)nnc2c2c1C1CCC2CC1"
parameter = "pKi"
comparison_symbol = "="
measurement = 8.62

[[record]]
smiles_repr = "c1ccc(-c2nnc3c4c(c(OCc5cscn5)nn23)C2CCC4CC2)cc1"
parameter = "pKi"
comparison_symbol = "="
measurement = 8.00

[[record]]
smiles_repr = "c1ccc(-c2nnc3c4c(c(OCc5ncccc5OC5CCC5)nn23)C2CCC4CC2)cc1"
parameter = "pKi"
comparison_symbol = "="
measurement = 7.42

[[record]]
smiles_repr = "Cc1c[nH]c(COc2nn3c(-c4ccccc4)nnc3c3c2C2CCC3CC2)n1"
parameter = "pKi"
comparison_symbol = "="
measurement = 8.11

[[record]]
smiles_repr = "c1ccc(COc2nn3c(-c4ccccc4)nnc3c3c2C2CCC3CC2)cc1"
parameter = "pKi"
comparison_symbol = "<"
measurement = 6.00

[[record]]
smiles_repr = "Cn1nnc(COc2nn3c(-c4ccccc4)nnc3c3c2C2CCC3CC2)n1"
parameter = "pKi"
comparison_symbol = "="
measurement = 7.43

[[record]]
smiles_repr = "COc1cccnc1COc1nn2c(-c3ccccc3)nnc2c2c1C1CCC2CC1"
parameter = "pKi"
comparison_symbol = "="
measurement = 8.62

[[record]]
smiles_repr = "c1ccc(-c2nnc3c4c(c(OCn5cccn5)nn23)C2CCC4CC2)cc1"
parameter = "pKi"
comparison_symbol = "="
measurement = 7.72

[[record]]
smiles_repr = "Oc1cccnc1COc1nn2c(-c3ccccc3)nnc2c2c1C1CCC2CC1"
parameter = "pKi"
comparison_symbol = "="
measurement = 6.74

[[record]]
smiles_repr = "Cc1ccnc(COc2nn3c(-c4ccccc4)nnc3c3c2C2CCC3CC2)c1"
parameter = "pKi"
comparison_symbol = "="
measurement = 7.74

[[record]]
smiles_repr = "c1ccc(-c2nnc3c4c(c(OCc5ccco5)nn23)C2CCC4CC2)cc1"
parameter = "pKi"
comparison_symbol = "<"
measurement = 6.30

[[record]]
smiles_repr = "CN(C)Cc1cccc(COc2nn3c(-c4ccccc4)nnc3c3c2C2CCC3CC2)c1"
parameter = "pKi"
comparison_symbol = "="
measurement = 7.62

[[record]]
smiles_repr = "c1ccc(-c2nnc3c4c(c(OCc5cccs5)nn23)C2CCC4CC2)cc1"
parameter = "pKi"
comparison_symbol = "<"
measurement = 6.30

[[record]]
smiles_repr = "c1ccc(-c2nnc3c4c(c(Oc5cccnc5)nn23)C2CCC4CC2)cc1"
parameter = "pKi"
comparison_symbol = "<"
measurement = 6.30

[[record]]
smiles_repr = "c1ccc(-c2nnc3c4c(c(COc5ccccn5)nn23)C2CCC4CC2)cc1"
parameter = "pKi"
comparison_symbol = "="
measurement = 6.92

[[record]]
smiles_repr = "c1ccc(COc2nn3c(N4CCOCC4)nnc3c3c2C2CCC3CC2)nc1"
parameter = "pKi"
comparison_symbol = "<"
measurement = 6.00

[[record]]
smiles_repr = "CCO[n+]1ccccc1Oc1nn2c(-c3ccccc3)nnc2c2c1C1CCC2CC1"
parameter = "pKi"
comparison_symbol = "="
measurement = 6.26

[[record]]
smiles_repr = "CCCn1ncnc1COc1nn2c(-c3ccccc3)nnc2c2c1C1CCC2CC1"
parameter = "pKi"
comparison_symbol = "="
measurement = 8.85

[[record]]
smiles_repr = "c1ccc(-c2nnc3c4c(c(OCCc5ccccn5)nn23)C2CCC4CC2)cc1"
parameter = "pKi"
comparison_symbol = "="
measurement = 6.70

[[record]]
smiles_repr = "CCn1ccnc1COc1nn2c(-c3ccccc3)nnc2c2c1C1CCC2CC1"
parameter = "pKi"
comparison_symbol = "="
measurement = 9.00

